- Test system: OVCAR-8 ovarian
- test_method_notes: NCI tumour cell line growth inhibition, 48 h
Quick reference: TGI of the listed items.
measured_parameter: TGI

molecule=CCN(CC)CCNc1c(OC)cc(C)c2sc3ccccc3c(=O)c12 value_measured="26.1 µM"
molecule="CC1(C)C2CC(c3ccncc3)ON2C(C)(C)N1O (stereo not drawn)" value_measured="> 100 µM"
molecule="COC1=CC23C=CC1[C@@H](c1ccccc1)C2=C(C)C(=O)N3C(=O)NC1CCCCC1 (stereo partly drawn)" value_measured="64.6 µM"
molecule=Cc1nc(N)sc1C(=O)/C=C/c1ccc(/C=C/C(=O)c2sc(NC(=O)CCCCCCCCC(=O)Nc3nc(C)c(C(=O)/C=C/c4ccc(/C=C/C(=O)c5sc(N)nc5C)cc4)s3)nc2C)cc1 value_measured="> 100 µM"
molecule=Clc1nc(Oc2ccccc2)nc(-c2cn(-c3ccccc3)c3ccccc23)n1 value_measured="11 µM"
molecule=O=C1C=C(c2c(O)ccc3ccccc23)c2ccccc2C1=O value_measured="5.3 µM"
molecule=O=C(Oc1ccc(O)c2c(=O)n3c(cc12)[nH]c1ccccc13)c1ccccc1 value_measured="32.5 µM"
molecule=CCCCCCNC(=O)C1=C(C)NC(C)=C(C(=O)NCCCCCC)C1 value_measured="> 100 µM"
molecule="COC1/C=C/C(C)C(C(C)C(OC)C(C)CCC(=O)C(C)C(CCC(=O)O)OC)OC(=O)/C=C/C=C(\\C)CC(OC)CC2=CC(=O)O[C@@H](C(C)C(OC)CC(OC)/C=C/C(C)C(OC)C1)[C@H]2O (stereo partly drawn)" value_measured="> 5 µM"
molecule=O=C(NCCNCCO)N/N=C/c1ccc(Cl)cc1 value_measured="> 100 µM"
molecule=CSC(=NC1=NC(C(F)(F)F)(C(F)(F)F)N=C(c2ccccc2)O1)SC value_measured="> 100 µM"
molecule=N#Cc1c2c(c(N3CCOCC3)n3c1nc1ccccc13)CCCC2 value_measured="43.4 µM"
molecule=COc1cc(-c2cc(=O)c3cc4c(cc3[nH]2)OCO4)cc(OC)c1OC value_measured="> 100 µM"
molecule=O=[N+]([O-])c1ccc2[nH]cc(-c3c4ccsc4cc4[nH]c5ccc([N+](=O)[O-])cc5c34)c2c1 value_measured="19.7 µM"
molecule=Cc1ccc(S(=O)(=O)N2CCN(CCN(C)CCN3CCN(S(=O)(=O)c4ccc(C)cc4)CC3)CC2)cc1 value_measured="32.7 µM"
molecule="CCCC(=O)c1c(NOC2OC(COC(C)=O)C(OC(C)=O)C(OC(C)=O)C2OC(C)=O)nc(OC)n(C)c1=O (stereo not drawn)" value_measured="> 100 µM"
molecule="CCOC(=O)C(O)(NC(C)=O)C(F)(F)F (stereo not drawn)" value_measured="> 100 µM"
molecule=CN(C)CCNc1nc2ccccc2c2c1c1c(n2Cc2ccccc2)-c2ccccc2C1=O value_measured="52.2 µM"
molecule="CC(=O)OCC1OC(n2c(-c3ccccc3)cc(-c3ccco3)c(C#N)c2=O)C(OC(C)=O)C(OC(C)=O)C1OC(C)=O (stereo not drawn)" value_measured="> 100 µM"
molecule=CCOC(=O)[C@@H](C)C[C@H](Cc1ccccc1)NC(=O)c1csc([C@@H](C[C@H](C(C)C)N(C)C(=O)[C@@H](NC(=O)[C@H]2C[C@H](O[Si](C)(C)C(C)(C)C)CCN2C)C(C)C)OC(C)=O)n1 value_measured="> 8.33 µM"
molecule="O=c1ccn(C2OC(CO)C(O)C2O)c(=O)[nH]1 (stereo not drawn)" value_measured="> 1000 µM"
molecule=CCOC(=O)C(C)(C)Oc1ccc2c(=O)cc(-c3ccc(Cl)cc3)oc2c1 value_measured="> 100 µM"
molecule=O=C(Nc1ccccc1C(F)(F)F)c1cccc(NC2=C(Cl)C(=O)N(Cc3ccccc3)C2=O)c1 value_measured="> 72.1 µM"
molecule=Oc1ccc(N=Nc2ccc(Cl)cc2)cc1 value_measured="38.2 µM"
molecule="CCOC(=O)C1=C(C)NC(=S)NC1c1cccc(O)c1 (stereo not drawn)" value_measured="> 100 µM"
molecule="Nc1nc2c(ncn2C2C=CC(CO)O2)c(=O)[nH]1 (stereo not drawn)" value_measured="> 100 µM"
molecule="O=C1[C@@H]2Cc3c([nH]c4ccccc34)C(C3CCCCC3)N2C(=O)[C@@H]2CCCN12 (stereo partly drawn)" value_measured="> 100 µM"
molecule="CN1CC(c2ccccc2)N(CCCCN2CC(c3ccccc3)N(C)CC2c2ccccc2)CC1c1ccccc1 (stereo not drawn)" value_measured="> 100 µM"
molecule="Cc1cc(S(=O)(=O)Nc2nc(N)nc(N3N=CCC3C)n2)c(S)cc1Cl (stereo not drawn)" value_measured="> 10 µM"
molecule="NC(=O)c1c[se]c(C2OC(CO)C(O)C2O)n1 (stereo not drawn)" value_measured="> 100 µM"
molecule=O=C1NC(N/N=C\c2ccccc2)=N/C1=C/c1ccc(Cl)cc1 value_measured="49.6 µM"
molecule="CCCCCCCCCCCCCCCCNc1nc(=O)n(C2CC(O)C(CO)O2)cc1F (stereo not drawn)" value_measured="23.9 µM"
molecule=CCOC(=O)c1c(N2CCOCC2)[nH]c(=O)c(C(c2ccc(OC)cc2)c2c(O)c(C(=O)OCC)c(N3CCOCC3)[nH]c2=O)c1O value_measured="> 100 µM"
molecule=Cc1c(CCCl)c(=O)n2c([nH]c3ccccc32)c1C#N value_measured="3.15 µM"
molecule=N#CCCN(CCCN(C(=O)Nc1ccccc1)c1ccccc1)C(=O)Nc1ccccc1 value_measured="> 100 µM"
molecule=c1cnc2c(c1)-n1cccc1C1(CCSCC1)NN2 value_measured="> 100 µM"
molecule=COC(=O)c1c(-c2ccccc2)cc2c3cc(-c4ccccc4)c(C(=O)OC)n3c3ccccc3n12 value_measured="> 100 µM"
molecule=NC(=O)COc1ccccc1 value_measured="> 100 µM"
